# reported pIC50; entries follow
System: Plasmodium berghei
Assay: Luciferase/luciferin-expressing antifolate-resistant parasites were used to infect a culture of HepG2 cells that were pre-incubated with compounds. Infected hepatocytes emit light due to the luciferase reaction. Assay results are presented as the percent inhibition of light emission compared to control. […]
Assay type: functional
Details: sporozoite, read-out: LUCIFERASE INFECTION ASSAY - IC50
pIC50: −log10 of the molar value.
endpoint.label: pIC50

1) CC(=O)c1sc2sc(C#N)c(C)c2c1C < 4.85
2) CCn1ncc2c(C(=O)Nc3nc(-c4ccc(OC)cc4OC)cs3)cc(-c3cccs3)nc21 < 5.00
3) Nc1ncc(-c2cc(F)c(F)c(F)c2)cc1-c1cccc(O)c1 < 4.98
